Items are presented alongside their recorded pIC50.
Test system: Mia Paca-2 cells
ASSAY_DETAILS: WST-1 proliferation/survival assay, gemcitabine-resistant Mia Paca-2
Format: cell-based
COND: Homo sapiens, 72 hours, 1% FCS, read-out: IC50 single agent
pIC50: −log10 of the molar value.

>>> result("Nc1ccn([C@@H]2O[C@H](CO)[C@@H](O)C2(F)F)c(=O)n1")
"< 5.00"

Kindly review the next molecule as well.
Could you share which pIC50 value was measured for "Cc1ccc(NC(=O)c2ccc(CN3CCN(C)CC3)cc2)cc1Nc1nc(-c2cccnc2)cs1" ?
5.00 to 5.30
